target: Hap1 (UniProt P0CE41); experiment: PBM E-score (8-mer binding enrichment) (E-score (-0.5 to 0.5)); higher = stronger / more preferred TF binding; conditions: protein concentration: 200 nM; construct: GST-DNA-binding domain
Sequence (P0CE41 whole entry, the tested form may be a part): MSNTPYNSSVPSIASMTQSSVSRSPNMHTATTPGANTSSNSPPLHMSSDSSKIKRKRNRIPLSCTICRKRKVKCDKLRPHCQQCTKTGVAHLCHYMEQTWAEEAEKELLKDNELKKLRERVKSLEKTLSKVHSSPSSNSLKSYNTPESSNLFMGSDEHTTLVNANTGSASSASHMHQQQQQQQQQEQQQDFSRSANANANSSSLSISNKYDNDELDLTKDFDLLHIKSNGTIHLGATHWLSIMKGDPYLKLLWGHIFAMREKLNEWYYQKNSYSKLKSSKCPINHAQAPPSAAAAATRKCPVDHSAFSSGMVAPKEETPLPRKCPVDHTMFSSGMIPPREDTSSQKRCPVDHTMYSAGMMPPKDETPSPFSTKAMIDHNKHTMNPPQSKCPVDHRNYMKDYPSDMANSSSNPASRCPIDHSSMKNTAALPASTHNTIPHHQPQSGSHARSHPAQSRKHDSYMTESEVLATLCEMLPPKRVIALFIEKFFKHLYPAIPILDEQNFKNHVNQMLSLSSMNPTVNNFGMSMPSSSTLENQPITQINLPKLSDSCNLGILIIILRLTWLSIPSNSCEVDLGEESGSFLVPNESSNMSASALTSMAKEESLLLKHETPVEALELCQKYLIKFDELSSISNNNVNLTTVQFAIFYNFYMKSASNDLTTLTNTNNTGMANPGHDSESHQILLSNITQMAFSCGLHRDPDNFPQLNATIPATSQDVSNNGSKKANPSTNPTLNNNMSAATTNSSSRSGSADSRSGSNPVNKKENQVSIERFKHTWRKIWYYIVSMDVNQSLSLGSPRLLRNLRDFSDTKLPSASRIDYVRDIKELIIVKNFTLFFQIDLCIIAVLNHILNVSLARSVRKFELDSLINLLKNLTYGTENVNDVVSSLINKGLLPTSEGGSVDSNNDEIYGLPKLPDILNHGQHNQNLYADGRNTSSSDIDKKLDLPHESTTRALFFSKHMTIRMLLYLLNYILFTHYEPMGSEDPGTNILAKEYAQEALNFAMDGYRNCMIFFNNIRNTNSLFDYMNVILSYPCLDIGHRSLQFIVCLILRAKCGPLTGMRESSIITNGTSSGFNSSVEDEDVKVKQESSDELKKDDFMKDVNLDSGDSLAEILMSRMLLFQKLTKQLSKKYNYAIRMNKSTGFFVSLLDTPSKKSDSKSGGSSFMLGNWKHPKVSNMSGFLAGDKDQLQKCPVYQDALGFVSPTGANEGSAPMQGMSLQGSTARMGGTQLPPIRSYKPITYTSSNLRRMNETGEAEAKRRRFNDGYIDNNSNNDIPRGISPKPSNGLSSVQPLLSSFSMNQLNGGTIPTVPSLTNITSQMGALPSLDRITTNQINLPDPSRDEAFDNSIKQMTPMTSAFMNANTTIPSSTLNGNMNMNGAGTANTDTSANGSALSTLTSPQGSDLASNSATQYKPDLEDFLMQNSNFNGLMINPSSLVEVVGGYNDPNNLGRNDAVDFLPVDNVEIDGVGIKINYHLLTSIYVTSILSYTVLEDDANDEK
The full ranking holds about 33,000 sequences; the median of “E-score (-0.5 to 0.5)” is about -0.053, and the highest 2% start at about 0.37. The full list was thinned out, with the highest values kept by preference.
Range-based classes on measured PBM E-score: lo = under 0.03, mid = from 0.03 up to 0.3, hi = 0.3 and over

Solved cases (4 shown):
sequence code	class name
CCGGTCCC	hi
CTCGGACC	hi
CATGGACA	lo
ACAGGCTG	lo

Class label required: "CGAGTACG" mid

Class label required: "CGAGGAGC" lo

Class label required: "GCTCTAAC" mid

Class label required: "ATATATCC" hi

Class label required: "CGCCGGTA" hi

Class label required: "AAAACCCC" mid

* * *

molecular target: Hap1 (UniProt P0CE41); assay: PBM E-score (8-mer binding enrichment) (E-score (-0.5 to 0.5)); higher = stronger / more preferred TF binding; settings: protein concentration: 200 nM; construct: GST-DNA-binding domain
The full ranking holds about 33,000 sequences; the median of “E-score (-0.5 to 0.5)” is about -0.053, and the highest 2% start at about 0.37. The sample holds the highest values, similar sequences and a random draw of the others, so the mix is not that of the screen.
attribute measured: PBM E-score
The response must contain the number and no unit.

In the examples that follow, each entry is paired with its recorded PBM E-score.
sequence code	study system	PBM E-score
TTCCGAAA	Hap1 (UniProt P0CE41)	0.363
GTCCGAAA	Hap1 (UniProt P0CE41)	0.421
GAACCATA	Hap1 (UniProt P0CE41)	-0.0291
GGCAAGGA	Hap1 (UniProt P0CE41)	-0.0722
CATCTCCC	Hap1 (UniProt P0CE41)	0.104

The value of PBM E-score measured for the sequence "ATTTCCGA" turned out to be 0.432

The value of PBM E-score measured for the sequence "CACCGAAC" turned out to be 0.194

The value of PBM E-score measured for the sequence "CAGGACGC" turned out to be -0.246

The value of PBM E-score measured for the sequence "GCCCGAAA" turned out to be 0.342

The value of PBM E-score measured for the sequence "CATCTCCA" turned out to be -0.0795

The value of PBM E-score measured for the sequence "ACATTGAC" turned out to be -0.114

The value of PBM E-score measured for the sequence "CCCCGAAC" turned out to be 0.291

The value of PBM E-score measured for the sequence "TACGCCTA" turned out to be -0.258

The value of PBM E-score measured for the sequence "GTTCCCTA" turned out to be -0.0618

* * *

target: Hap1 (UniProt P0CE41); assay: PBM E-score (8-mer binding enrichment) (E-score (-0.5 to 0.5)); higher = stronger / more preferred TF binding; conditions: protein concentration: 200 nM; construct: GST-DNA-binding domain
The full ranking holds about 33,000 sequences; the median of “E-score (-0.5 to 0.5)” is about -0.053, and the highest 2% start at about 0.37. The sample as a whole holds a higher share of the highest values than the screen did.
The reader will find reported PBM E-score values listed item by item below.
The response must contain the number and no unit.

sequence code	PBM E-score
GGAAGACC	0.0832
AGCCGGAA	0.371
TATTGCGA	0.0517
CATCCGCC	0.244
AGTTACCG	0.266
ACCACAGC	-0.127
GTTTCGGA	0.389
GCGGACGC	0.0721

Field PBM E-score (Hap1 (UniProt P0CE41)), entry "ACACGGAT" : 0.209

Field PBM E-score (Hap1 (UniProt P0CE41)), entry "CTTTCGTA" : -0.158

Field PBM E-score (Hap1 (UniProt P0CE41)), entry "GTTTCGAA" : -0.219

Field PBM E-score (Hap1 (UniProt P0CE41)), entry "AGCCCGGC" : 0.272

Field PBM E-score (Hap1 (UniProt P0CE41)), entry "CGCGTCAC" : -0.174
